TEST_DETAILS: Maximum solubility at pH 7.4
Assay type: physicochemical
ENDPOINT_LABEL: solubility (µM)
Please state the figure in µM; there is no need to write the unit.

What does the data say about its solubility? Entry: `CCCCCCCCc1ccc(CCC(N)(CO)CO)cc1.Cl`
81
